Measured log2 ratio of Biotin-Ahx-Ub-VS probe labelling of individual entries
target: USP15 (UniProt Q9Y4E8)
Sequence (Q9Y4E8 whole entry, the tested form may be a part): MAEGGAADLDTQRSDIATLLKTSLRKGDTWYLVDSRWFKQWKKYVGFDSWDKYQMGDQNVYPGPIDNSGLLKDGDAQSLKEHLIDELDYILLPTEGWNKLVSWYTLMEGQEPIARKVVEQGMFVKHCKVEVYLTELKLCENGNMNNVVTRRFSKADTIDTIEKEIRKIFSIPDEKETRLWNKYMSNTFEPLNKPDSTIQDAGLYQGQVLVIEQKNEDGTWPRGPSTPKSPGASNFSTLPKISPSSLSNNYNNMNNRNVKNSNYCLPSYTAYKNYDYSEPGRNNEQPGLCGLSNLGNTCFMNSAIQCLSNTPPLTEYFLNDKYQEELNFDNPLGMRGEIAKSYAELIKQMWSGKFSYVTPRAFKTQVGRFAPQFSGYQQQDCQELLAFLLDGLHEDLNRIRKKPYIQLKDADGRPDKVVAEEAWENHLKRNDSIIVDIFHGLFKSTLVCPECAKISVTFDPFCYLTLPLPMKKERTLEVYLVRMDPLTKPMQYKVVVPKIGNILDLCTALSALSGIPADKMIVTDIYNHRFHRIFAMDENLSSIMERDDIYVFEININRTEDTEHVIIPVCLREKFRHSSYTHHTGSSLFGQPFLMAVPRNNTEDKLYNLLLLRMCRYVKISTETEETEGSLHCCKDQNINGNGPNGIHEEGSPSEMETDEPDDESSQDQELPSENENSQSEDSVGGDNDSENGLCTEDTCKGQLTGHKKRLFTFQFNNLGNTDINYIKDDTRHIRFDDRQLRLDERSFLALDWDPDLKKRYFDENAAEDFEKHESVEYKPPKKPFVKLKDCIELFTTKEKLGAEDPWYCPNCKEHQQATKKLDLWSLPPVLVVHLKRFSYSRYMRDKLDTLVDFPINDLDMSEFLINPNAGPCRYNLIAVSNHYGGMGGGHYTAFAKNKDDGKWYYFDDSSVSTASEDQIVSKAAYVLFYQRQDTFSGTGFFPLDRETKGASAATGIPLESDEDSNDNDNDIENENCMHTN
assay-method-text: log2 ratio of Biotin-Ahx-Ub-VS probe labelling (fragment/DMSO); higher = less target engagement (more negative = stronger competition), active = hit call of the paper (q ≤ 0.05, log2 ratio ≤ -1)
details: compound concentration: 200 uM; treatment time: 3 h
attribute-measured: log2 ratio of Biotin-Ahx-Ub-VS probe labelling

>  <compound>
O=C(CCl)N1CCOC(CCc2ccccc2)C1 (centres undefined)

>  <value-observed>
-0.374

$$$$
>  <compound>
CN(Cc1nc2ccccc2[nH]1)C(=O)CCl.Cl

>  <value-observed>
-0.17

$$$$
>  <compound>
Cc1cccnc1NC(=O)C1CCN(C(=O)CCl)CC1.Cl

>  <value-observed>
-0.24

$$$$
>  <compound>
CN1C(=O)c2ccc(NC(=O)CCl)cc2C1=O

>  <value-observed>
-0.389

$$$$
>  <compound>
O=C(CCl)NCc1ccc(N2CCOCC2)c(F)c1

>  <value-observed>
-0.0773

$$$$
>  <compound>
Cc1ccccc1CN(C)C(=O)CCl

>  <value-observed>
-0.803

$$$$
>  <compound>
Cl.O=C(CCl)NC1(c2ncccn2)CCC1

>  <value-observed>
0.0327

$$$$
>  <compound>
O=C(CCl)Nc1cc2c(cc1Cl)OCCO2

>  <value-observed>
-0.202

$$$$
>  <compound>
COc1ccc(CN(C)C(=O)CCl)cc1

>  <value-observed>
-0.112

$$$$
>  <compound>
COc1ccc(C2CCCN2C(=O)CCl)c(OC)c1 (centres undefined)

>  <value-observed>
-0.424

$$$$
>  <compound>
CC1CCc2onc(CNC(=O)CCl)c2C1 (centres undefined)

>  <value-observed>
-0.0914

$$$$
>  <compound>
CCN1C(=O)C2CN(C(=O)CCl)CCN2C1=O (centres undefined)

>  <value-observed>
-0.265

$$$$
>  <compound>
O=C(CCl)NCC(=O)N1CCCC1

>  <value-observed>
-0.0663

$$$$
>  <compound>
O=C(CCl)Nc1ccc(N2CCCC2=O)cc1

>  <value-observed>
0.104

$$$$

---

target: OTUD5 (UniProt Q96G74)
Sequence (Q96G74 whole entry, the tested form may be a part): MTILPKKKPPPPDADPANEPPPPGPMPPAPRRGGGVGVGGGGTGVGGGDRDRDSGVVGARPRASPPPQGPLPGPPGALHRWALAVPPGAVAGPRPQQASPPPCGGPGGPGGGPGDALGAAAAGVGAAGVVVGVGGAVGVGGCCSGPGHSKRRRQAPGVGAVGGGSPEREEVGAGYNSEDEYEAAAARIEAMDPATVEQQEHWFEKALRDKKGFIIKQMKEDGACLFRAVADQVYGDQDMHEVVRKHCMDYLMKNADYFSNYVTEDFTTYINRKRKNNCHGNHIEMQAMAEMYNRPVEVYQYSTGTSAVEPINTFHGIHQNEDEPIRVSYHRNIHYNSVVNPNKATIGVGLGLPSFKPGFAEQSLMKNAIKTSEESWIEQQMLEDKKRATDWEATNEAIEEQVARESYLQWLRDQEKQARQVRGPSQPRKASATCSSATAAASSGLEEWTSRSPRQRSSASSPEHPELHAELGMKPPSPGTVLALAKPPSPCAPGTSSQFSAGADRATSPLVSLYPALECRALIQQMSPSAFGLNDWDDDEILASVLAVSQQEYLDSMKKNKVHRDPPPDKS
assay-method-text: log2 ratio of Biotin-Ahx-Ub-VS probe labelling (fragment/DMSO); higher = less target engagement (more negative = stronger competition), active = hit call of the paper (q ≤ 0.05, log2 ratio ≤ -1)
details: compound concentration: 200 uM; treatment time: 3 h
Everything with log2 ratio of Biotin-Ahx-Ub-VS probe labelling lower than -0.4 is not fulfilled; everything else, including exactly -0.4, is fulfilled.

>  <compound>
Cc1nc(CN2CCN(C(=O)CCl)CC2)cs1

>  <class-label>
fulfilled

$$$$
>  <compound>
O=C(CCl)Nc1ccc(F)cc1F

>  <class-label>
not fulfilled

$$$$
>  <compound>
Cl.O=C(CCl)N1CCC(Cc2nccs2)C1 (centres undefined)

>  <class-label>
fulfilled

$$$$
>  <compound>
Cc1cc(Cl)ccc1NC(=O)CCl

>  <class-label>
fulfilled

$$$$
>  <compound>
Cc1cnc2[nH]cc(CCNC(=O)CCl)c2c1

>  <class-label>
fulfilled

$$$$
>  <compound>
Cl.Cn1ncc2c1CC(NC(=O)CCl)CC2 (centres undefined)

>  <class-label>
fulfilled

$$$$
>  <compound>
O=C(CCl)Nc1ccccc1C(F)(F)F

>  <class-label>
not fulfilled

$$$$
>  <compound>
Cc1nc(CC2CCN(C(=O)CCl)CC2)no1

>  <class-label>
not fulfilled

$$$$
>  <compound>
CC1CN(c2ccc(NC(=O)CCl)cc2)CC(C)O1 (centres undefined)

>  <class-label>
fulfilled

$$$$
>  <compound>
CN(C)S(=O)(=O)c1ccccc1CNC(=O)CCl

>  <class-label>
fulfilled

$$$$
>  <compound>
CNC(=O)C1CCN(C(=O)CCl)CC1

>  <class-label>
fulfilled

$$$$
>  <compound>
O=C(CCl)N1CCC(S(=O)(=O)c2ccc(F)cc2)CC1

>  <class-label>
not fulfilled

$$$$
>  <compound>
O=C(CCl)N1CCN2C(=O)CCC2C1 (centres undefined)

>  <class-label>
not fulfilled

$$$$
>  <compound>
CS(=O)(=O)c1ccc(NC(=O)CCl)cc1

>  <class-label>
not fulfilled

$$$$
>  <compound>
O=C(CCl)NCC(=O)N1CCCC1

>  <class-label>
fulfilled

$$$$
>  <compound>
Cc1ccc(CNC(=O)CCl)nc1C.Cl

>  <class-label>
fulfilled

$$$$
>  <compound>
COCC1C=CCCN1C(=O)CCl (centres undefined)

>  <class-label>
fulfilled

$$$$
>  <compound>
O=C(CCl)Nc1cccc(NC(=O)c2ccccc2)c1

>  <class-label>
fulfilled

$$$$
>  <compound>
O=C(CCl)Nc1ccc(N2CCCC2=O)cc1

>  <class-label>
not fulfilled

$$$$
>  <compound>
Cc1n[nH]c(=O)c2c(NC(=O)CCl)oc(C)c12

>  <class-label>
fulfilled

$$$$
>  <compound>
Cc1cc(CC(C)NC(=O)CCl)n[nH]1 (centres undefined)

>  <class-label>
fulfilled

$$$$
>  <compound>
O=C(CCl)N[C@H]1CC[C@@H](CO)CC1

>  <class-label>
not fulfilled

$$$$
>  <compound>
O=C(CCl)N1CCc2[nH]c3ccccc3c2C1

>  <class-label>
not fulfilled

$$$$
>  <compound>
O=C(CCl)N1CCc2nc[nH]c2C1c1ccc(Cl)cc1 (centres undefined)

>  <class-label>
not fulfilled

$$$$
>  <compound>
CCN(C(=O)CCl)C1CCCCC1

>  <class-label>
fulfilled

$$$$
>  <compound>
CC(NC(=O)CCl)c1cccc2ccccc12 (centres undefined)

>  <class-label>
fulfilled

$$$$
>  <compound>
Cc1noc(C)c1CNC(=O)CCl

>  <class-label>
not fulfilled

$$$$
>  <compound>
CN1c2ccccc2C(NC(=O)CCl)CS1(=O)=O (centres undefined)

>  <class-label>
fulfilled

$$$$
>  <compound>
CC1(NC(=O)CCl)CCS(=O)(=O)C1 (centres undefined)

>  <class-label>
not fulfilled

$$$$

Reference for the values: the supplement of paper PMC11732987
